Target: CCK-B (Rattus norvegicus, UniProt P30553)
Construct: CCK-B receptors originating in the cell membrane of rat brain cells
Sequence (P30553 1-452): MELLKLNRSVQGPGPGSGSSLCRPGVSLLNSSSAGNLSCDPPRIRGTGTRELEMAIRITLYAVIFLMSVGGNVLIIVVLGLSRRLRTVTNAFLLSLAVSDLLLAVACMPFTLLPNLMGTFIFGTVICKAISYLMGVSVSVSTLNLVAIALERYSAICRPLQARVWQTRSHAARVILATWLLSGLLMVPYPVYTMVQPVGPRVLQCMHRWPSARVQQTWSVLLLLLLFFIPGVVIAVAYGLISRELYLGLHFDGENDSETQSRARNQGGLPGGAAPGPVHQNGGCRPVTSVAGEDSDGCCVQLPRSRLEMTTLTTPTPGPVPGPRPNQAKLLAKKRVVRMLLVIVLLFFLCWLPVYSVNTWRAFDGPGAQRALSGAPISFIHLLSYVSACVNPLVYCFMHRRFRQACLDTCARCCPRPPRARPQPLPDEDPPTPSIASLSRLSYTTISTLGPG
Assay: Central receptor (CCK-B) binding experiment, [^3 H]-CCK-8 binding inhibition
Conditions: rat cerebrum homogenate, 0.2 nM [^3 H]-CCK-8, 60 minutes at 25° C
pIC50: −log10 of the molar value.

COMPOUND	VALUE PREFIX	pIC50
O=C(N[C@@H](CSc1ncccc1C(=O)O)C(=O)N1CCN(C(c2ccccn2)c2ccccn2)CC1)c1cc2ccccc2[nH]1 [Compound 8-5]	=	4.24
COc1ccc2[nH]c(C(=O)N[C@@H](CSc3ncccc3C(=O)O)C(=O)N3CCN(C(c4ccccc4)c4ccccc4)CC3)cc2c1 [Compound 6-2]	=	4.74
O=C(N[C@@H](CSc1ncccc1C(=O)O)C(=O)N1CCC(C(c2ccccc2)c2ccccc2)CC1)c1cc2cc(Cl)ccc2[nH]1 [Compound 20-2]	<	3.00
CC(C)C(C(C)C)N1CCN(C(=O)[C@H](CSc2ncccc2C(=O)O)NC(=O)c2cc3ccccc3[nH]2)CC1 [Compound 15-4]	=	5.06
COc1ccc2[nH]c(C(=O)N[C@@H](CSc3ncccc3C(=O)O)C(=O)N3CCC(C(c4ccccc4)c4ccccc4)CC3)cc2c1 [Compound 21-2]	=	2.77
O=C(N[C@@H](CSc1nccnc1C(=O)O)C(=O)N1CCN(C(c2ccccc2)c2ccccc2)CC1)c1cc2ccccc2[nH]1 [Compound 17-3]	=	4.89
O=C(N[C@@H](CCn1nncc1C(=O)O)C(=O)N1CCN(C(c2ccccc2)c2ccccc2)CC1)c1cc2ccccc2[nH]1 [Compound 24-3]	=	4.16
O=C(N[C@@H](CCCn1nncc1C(=O)O)C(=O)N1CCN(C(c2ccccc2)c2ccccc2)CC1)c1cc2ccccc2[nH]1 [Compound 28-3]	=	5.52
O=C(N[C@@H](CSc1ncccc1C(=O)O)C(=O)N1CCN(C(c2ccccc2)c2ccccc2)CC1)c1cc2cc(O)ccc2[nH]1 [Compound 12-2]	=	4.38
O=C(N[C@@H](CCc1ocnc1C(=O)O)C(=O)N1CCN(C(c2ccccc2)c2ccccc2)CC1)c1cc2ccccc2[nH]1 [Compound 26-5]	=	5.00
O=C(N[C@@H](CCCn1nnc(C(=O)O)c1C(=O)O)C(=O)N1CCN(C(c2ccccc2)c2ccccc2)CC1)c1cc2ccccc2[nH]1 [Compound 23-6]	=	4.60
CCCCC(CCCC)N1CCN(C(=O)[C@H](CSc2ncccc2C(=O)O)NC(=O)c2cc3ccccc3[nH]2)CC1 [Compound 14-5]	=	4.00
O=C(N[C@@H](CSc1ncccc1P(=O)(O)O)C(=O)N1CCN(C(c2ccccc2)c2ccccc2)CC1)c1cc2ccccc2[nH]1 [Compound 22-4]	=	4.25
